Biological target: human glucagon receptor (human, UniProt P47871 26-477)
Test: cell-based or functional assay
QUANTITY: cAMP EC50 (nM)
Kindly provide the numeric value in nM only, without the unit symbol.

Query: Recorded cAMP EC50 of IP254 (Fc fusion) YSEGTFTSDYSKLLEEEAVRLFIEWLLAGNGTGGGGSGGGGSGGGGSGGGGSATHTCPPCPAPEF , please.
Response: 160

Query: Recorded cAMP EC50 of IP328 (Fc fusion) YSEGTFTSDYSKLLEEEAVRLFIEWLLAGGGGGGGSGGGGSGGGGSGGGGSGGGGSGGGGSGGGGSGGGGSA , please.
Response: 43

Query: Recorded cAMP EC50 of IP322 (Fc fusion) YSEGTFTSDYSKLLEEEAVRLFIEWLVKGPGGGGGSGGGGSGGGGSGGGGSGGGGSA , please.
Response: 260

Query: Recorded cAMP EC50 of IP278 (Fc fusion) YSEGTFTSDYSKLLEEEAVRLFIEWLVKGPPSSGAPPPSGGGGGSGGGGSGGGGSGGGGSATHTCPPC , please.
Response: 78

Query: Recorded cAMP EC50 of IP327 (Fc fusion) YSEGTFTSDYSKLLEEEAVRLFIEWLLAGGGGGGGSGGGGSGGGGSGGGGSGGGGSGGGGSA , please.
Response: 10

Query: Recorded cAMP EC50 of IP229 (Fc fusion) YSEGTFTSDYSKLLEEEAVRLFIEWLLAGAAAGGSGSTASSGSGSATGGGGAATHTCPPCPAPEF , please.
Response: 28
